These measurements were taken from patent US11826347B2.

- experiment notes: in vivo
- condition set: male, Dutch Belted, rabbit, topical or ocular, Plasma Cmax
Counter-ions that a name gives are not always drawn.
endpoint: Cmax (ng/mL)

# compound, experimental value
data = [
    ("CCCNC(C)C(=O)Nc1c(C)csc1C(=O)OC (stereo not shown) [articaine, hydrochloride]", 457),
]
